Where do these numbers come from? They come from ChEMBL document CHEMBL3400005.

# experimental-protocol: physchem
The entries below are paired with their reported solubility thermodynamic.
Field format: number, assumed µM, no unit text.

{"compound": "CCCSc1ccc2nc(NC(=O)OC)[nH]c2c1", "recorded-value": 0.49}
{"compound": "COc1ccc2[nH]c([S+]([O-])Cc3ncc(C)c(OC)c3C)nc2c1 (configuration not stated)", "recorded-value": 145}
{"compound": "CCC(=O)O[C@]1(C(=O)SCF)[C@H](C)C[C@H]2[C@@H]3C[C@H](F)C4=CC(=O)C=C[C@]4(C)[C@@]3(F)[C@@H](O)C[C@@]21C [FLUTICASONE PROPIONATE]", "recorded-value": 0.102}
{"compound": "COCCOC(=O)C1=C(C)NC(C)=C(C(=O)OC(C)C)C1c1cccc([N+](=O)[O-])c1 (configuration not stated)", "recorded-value": 5.75}
{"compound": "C[C@@H]1[C@H](O)[C@@H](C)/C=C/C=C/C=C/C=C/C=C/C=C/C=C/[C@H](O[C@@H]2O[C@H](C)[C@@H](O)[C@H](N)[C@@H]2O)C[C@@H]2O[C@](O)(C[C@@H](O)C[C@@H](O)[C@H](O)CC[C@@H](O)C[C@@H](O)CC(=O)O[C@H]1C)C[C@H](O)[C@H]2C(=O)O", "recorded-value": 81.3}
{"compound": "O=C(/C=C/C=C/c1ccc2c(c1)OCO2)N1CCCCC1", "recorded-value": 14.1}

Please look at the following compound next.
Input line: What measured solubility thermodynamic goes with `Cc1cnc(NC(=O)C2=C(O)c3ccccc3S(=O)(=O)N2C)s1` ?
Output line: 2.29
